Provenance of the data: patent US20130230533A1

Catalogue of koff readings, one per entry.
- TEST_TARGET: T1, Monomeric monkey CD48-mmH (monkey)
- T1 construct: Soluble monkey CD48 with a myc-myc-hexa-histidine C-terminal tag; the whole entry is the construct; also called mfCD48-mmH
- T1 chain: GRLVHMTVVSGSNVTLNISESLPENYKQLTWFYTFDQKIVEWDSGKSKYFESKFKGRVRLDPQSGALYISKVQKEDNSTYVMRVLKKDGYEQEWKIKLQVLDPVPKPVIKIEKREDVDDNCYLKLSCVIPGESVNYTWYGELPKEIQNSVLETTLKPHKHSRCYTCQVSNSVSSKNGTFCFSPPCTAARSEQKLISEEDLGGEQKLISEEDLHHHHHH
- EXPERIMENTAL_PROTOCOL: SPR (Biacore), antibody captured by anti-Fc, CD48 in solution, 25 C
The answer consists of two parts: a number and, after it, its unit.

- BINDER: "H4H1770P (antibody, human IgG4, V domains shown, Human IgG4 Fc (H4H)) VH: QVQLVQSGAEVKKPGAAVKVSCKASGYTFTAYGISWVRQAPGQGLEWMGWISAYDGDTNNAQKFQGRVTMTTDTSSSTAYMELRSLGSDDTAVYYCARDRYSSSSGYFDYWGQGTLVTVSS VL: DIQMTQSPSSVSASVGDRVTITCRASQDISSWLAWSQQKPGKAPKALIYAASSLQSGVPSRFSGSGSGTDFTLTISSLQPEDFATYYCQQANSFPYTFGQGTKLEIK"
  koff: "0.000215 s⁻¹"
- BINDER: "H4H1713N (antibody, V domains shown, Human IgG4 Fc (H4H)) VH: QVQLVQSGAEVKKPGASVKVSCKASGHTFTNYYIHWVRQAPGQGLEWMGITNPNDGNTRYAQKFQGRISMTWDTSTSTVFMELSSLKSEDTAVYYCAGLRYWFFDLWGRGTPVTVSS VL: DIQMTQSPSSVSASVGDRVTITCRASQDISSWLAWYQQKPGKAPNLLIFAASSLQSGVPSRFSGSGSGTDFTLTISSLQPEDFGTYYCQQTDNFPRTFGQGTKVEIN"
  koff: "0.000265 s⁻¹"

Proceed to the following item.
QUERY: Return reported koff. Input binder: H4H1763N (antibody, V domains shown, Human IgG4 Fc (H4H)) VH: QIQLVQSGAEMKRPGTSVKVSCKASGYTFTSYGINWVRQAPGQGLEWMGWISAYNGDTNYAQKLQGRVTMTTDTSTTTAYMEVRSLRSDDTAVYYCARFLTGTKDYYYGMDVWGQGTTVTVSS VL: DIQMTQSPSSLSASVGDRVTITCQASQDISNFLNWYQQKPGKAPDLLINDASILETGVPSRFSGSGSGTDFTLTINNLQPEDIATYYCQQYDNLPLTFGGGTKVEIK
RESULT: 0.00124 s⁻¹
